// reported GI50 for each item listed
Test system: NCI-H460
assay comment: Cytotoxicity against human NCI-H460 cells
Format: functional

{"record smiles": "O=C1N[C@H]2[C@@H]3OP(=O)([O-])O[C@@H]3[C@@H](O)[C@H](O)[C@@H]2c2cc3c(c(O)c21)OCO3.[Na+]", "display unit": "µg/mL", "GI50": 3.8}
{"record smiles": "O=C(O[C@H]1[C@H](O)[C@@H](O)[C@@H](O)[C@@H]2NC(=O)c3c(cc4c(c3O)OCO4)[C@H]21)c1ccccc1", "display unit": "µg/mL", "GI50": 0.0001}
{"record smiles": "C1CNCCN1.O=C1N[C@H]2[C@H](OP(=O)(O)O)[C@H](O)[C@@H](O)[C@H](O)[C@@H]2c2cc3c(c(O)c21)OCO3", "display unit": "µg/mL", "GI50": 0.35}

---

// reported GI50 for each item listed
System: NCI-H460
assay comment: Cytotoxicity against human NCI-H460 cells
Format: functional

{"compound": "O=C1N[C@H]2[C@H](OP(=O)([O-])O)[C@H](O)[C@@H](O)[C@H](O)[C@@H]2c2cc3c(c(O)c21)OCO3.[K+]", "GI50": "0.4 µg/mL"}
{"compound": "C=C[C@H]1CN2CC[C@H]1C[C@H]2[C@H](O)c1ccnc2ccc(OC)cc12.O=C1N[C@H]2[C@H](OP(=O)(O)O)[C@H](O)[C@@H](O)[C@H](O)[C@@H]2c2cc3c(c(O)c21)OCO3", "GI50": "0.31 µg/mL"}
{"compound": "O=C1N[C@H]2[C@H](OP(=O)([O-])[O-])[C@H](O)[C@@H](O)[C@H](O)[C@@H]2c2cc3c(c(O)c21)OCO3.[Ca+2]", "GI50": "0.27 µg/mL"}
{"compound": "O=C1N[C@H]2[C@H](OP(=O)([O-])O)[C@H](O)[C@@H](O)[C@H](O)[C@@H]2c2cc3c(c(O)c21)OCO3.[Na+]", "GI50": "0.38 µg/mL"}
{"compound": "O=C1N[C@H]2[C@H](O)[C@H](O)[C@@H](O)[C@H](O)[C@@H]2c2cc3c(c(OP(=O)([O-])[O-])c21)OCO3.[Na+].[Na+]", "GI50": "0.19 µg/mL"}
{"compound": "O=C1N[C@H]2[C@H](OP(=O)(O)O)[C@H](O)[C@@H](O)[C@H](O)[C@@H]2c2cc3c(c(O)c21)OCO3.c1c[nH]cn1", "GI50": "0.25 µg/mL"}
{"compound": "O=C1N[C@@H]2C(=C[C@H](O)[C@@H](O)[C@H]2O)c2cc3c(c(O)c21)OCO3 [NARCICLASINE]", "GI50": "0.0084 µg/mL"}
{"compound": "O=C1N[C@H]2[C@H](OP(=O)([O-])[O-])[C@H](O)[C@@H](O)[C@H](O)[C@@H]2c2cc3c(c(O)c21)OCO3.[Mg+2]", "GI50": "0.42 µg/mL"}
{"compound": "O=C1N[C@H]2[C@H](OP(=O)([O-])O)[C@H](O)[C@@H](O)[C@H](O)[C@@H]2c2cc3c(c(O)c21)OCO3.[Li+]", "GI50": "0.35 µg/mL"}
{"compound": "O=C1N[C@H]2[C@H](O)[C@H](O)[C@@H](O)[C@H](O)[C@@H]2c2cc3c(c(O)c21)OCO3 [PANCRATISTATIN]", "GI50": "0.032 µg/mL"}
{"compound": "C=C[C@H]1CN2CC[C@H]1C[C@@H]2[C@@H](O)c1ccnc2ccc(OC)cc12.O=C1N[C@H]2[C@H](OP(=O)(O)O)[C@H](O)[C@@H](O)[C@H](O)[C@@H]2c2cc3c(c(O)c21)OCO3", "GI50": "0.36 µg/mL"}
{"compound": "O=C1N[C@H]2[C@H](OP(=O)([O-])[O-])[C@H](O)[C@@H](O)[C@H](O)[C@@H]2c2cc3c(c(O)c21)OCO3.[Zn+2]", "GI50": "0.42 µg/mL"}
{"compound": "O=C1N[C@H]2[C@H](OP(=O)(O)O)[C@H](O)[C@@H](O)[C@H](O)[C@@H]2c2cc3c(c(O)c21)OCO3", "GI50": "0.42 µg/mL"}
{"compound": "O=C(O[C@H]1[C@H](O)[C@H]2OP(=O)([O-])O[C@H]2[C@@H]2NC(=O)c3c(cc4c(c3O)OCO4)[C@H]21)c1ccccc1.[Na+]", "GI50": "0.029 µg/mL"}
{"compound": "O=C1N[C@@H]2C(=C[C@H](O)[C@H]3OP(=O)([O-])O[C@H]32)c2cc3c(c(O)c21)OCO3.[Na+] [SODIUM NARCISTATIN]", "GI50": "0.058 µg/mL"}
{"compound": "C1COCCN1.O=C1N[C@H]2[C@H](OP(=O)(O)O)[C@H](O)[C@@H](O)[C@H](O)[C@@H]2c2cc3c(c(O)c21)OCO3", "GI50": "0.46 µg/mL"}
